Target: T1, recombinant human EphB4 (human, UniProt P54760 16-539)
T1 construct: EphB4 (ephrin type-B receptor 4), human, recombinant; Amine-coupled to CM5 chips for SPR; a soluble extracellular form is likely; In the functional rows it stands for the EphB4 of the ovarian cancer cells; also called rhEphB4; source: bought: R&D Systems
T1 sequence (looked up): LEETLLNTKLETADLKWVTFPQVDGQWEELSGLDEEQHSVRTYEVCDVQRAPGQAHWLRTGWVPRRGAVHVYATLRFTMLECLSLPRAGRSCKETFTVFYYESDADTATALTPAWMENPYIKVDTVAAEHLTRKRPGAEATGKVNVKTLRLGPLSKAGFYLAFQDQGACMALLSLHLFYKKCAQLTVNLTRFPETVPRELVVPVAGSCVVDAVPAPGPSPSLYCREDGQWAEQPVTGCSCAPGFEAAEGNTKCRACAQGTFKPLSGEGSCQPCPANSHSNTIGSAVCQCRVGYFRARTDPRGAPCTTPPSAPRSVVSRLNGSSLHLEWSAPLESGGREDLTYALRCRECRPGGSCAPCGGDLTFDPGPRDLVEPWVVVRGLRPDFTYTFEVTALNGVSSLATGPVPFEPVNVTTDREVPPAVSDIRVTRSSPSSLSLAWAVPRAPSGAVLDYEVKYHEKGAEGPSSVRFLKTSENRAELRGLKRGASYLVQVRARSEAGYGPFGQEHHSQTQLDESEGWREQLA
Experiment: SPR; BIACore 3000; rhEphB4 amine-coupled to CM5 chips; peptides injected at 1.6 nM to 800 nM, 30 uL/min, in duplicate; 25 C; HBSEP buffer (0.01 M HEPES pH 7.4, 0.15 M NaCl, 3 mM EDTA, 0.005% P20); 1:1 Langmuir binding model, KD = Koff/Kon
Conditions: both partners purified
No end group written: not given here.
Give measured Kd for each item. Keep answers brief.
Please give the number followed by its unit.

Exam item: Give the reported value of Kd for this record: KTNYLFSPNGPIARAWD (also: cyclic, ring bond not given here, TNYL-RAW with an added Lys before and Asp after it, cyclised; MW 1932 Da; also called B4-001; source: synthetic peptide (solid phase, Rink resin, HPLC purified)) [Cyclo(KTNYLFSPNGPIARAWD)]
Marked response: 4.4 nM

Exam item: Look up Kd of TNYLFSPNGPIARAW (known EphB4 antagonist peptide, 15 residues (P1-P15); Made on Rink resin, so a C-terminal amide is likely; source: synthetic peptide (solid phase, Rink resin, HPLC purified)) [TNYL-RAW] and report it.
Marked response: 3.1 nM
